Each entry below carries its reported kon.
# subject of test: T1, soluble form of the extracellular domain of human CD40 (Creative BioMart) (human, UniProt P25942 21-193)
# T1 construct: Bought
# assay overview: SPR, Ab captured
reported metric: kon (M⁻¹ s⁻¹)

[[record]]
binder = "AD164.14.6 (antibody, V domains shown, mouse hybridoma antibody; also called muAb9) VH: DVQLQESGPGLVKPSQSLSLTCSVTGYSITSNYYWNWIRQFPGNKLEWMGYIRYDGSNNYNPSLKNRISITRDTSKNQFFLKLNSVTTEDTATYYCARLDYWGQGTTLTVSS VL: DAVMTQTPLSLPVSLGDQASISCRSSQSLENTNGNTFLNWFLQKPGQSPQLLIYRVSNRFSGVPDRFSGSGSGTDFTLKISRVEAEDLGVYFCLQVTHVPFTFGSGTKLEIK"
reported_metric = "kon"
unit_symbol = "M⁻¹ s⁻¹"
recorded_result = "2.8e+06"

[[record]]
binder = "AD175.14.11 (antibody, V domains shown, mouse hybridoma antibody; also called muAb3) VH: EVQLQQSGPELVKPGASVKISCKASGYTFTDYYMNWVKQSHGKSLEWIGDINPNNGGTSYNQKFKGKATLTVDKSSSTAYMELRSLTSEDSAVYYCARRGGLGRGTYALDYWGQGTSVTVSS VL: DIQMTQTTSSLSASLGDRVTISCRASQDISNYLNWYQQKPDGTVKPLIYYTSRLHLGVPSRFSGSGSGTDYSLTISNLEQEDIATYFCQQGNTLPLTFGAGTKLELK"
reported_metric = "kon"
unit_symbol = "M⁻¹ s⁻¹"
recorded_result = 69000

[[record]]
binder = "AD166.4.4 (antibody, V domains shown, mouse hybridoma antibody; also called muAb2) VH: QVQLQQSGAELMKPGASAKLSCKATGYTFTGYWIQWVKQRPGHGLEWIGEILPGGDHTKYNEKFRGKATFTSDTSSNTVYMQLSSLTTEDSAIYYCARVGGDYWGQGTTLTVSS VL: DVVMTQTPLSLPVSLGDQASISCRSSQSLVNSNENTYLHWYLQKPGQSPKLLIYKVFNRYSGVPDRFSGSGSGTDFTLKISRVEAEDLGVYFCFQSTHVPWTFGGGTKLEIK"
reported_metric = "kon"
unit_symbol = "M⁻¹ s⁻¹"
recorded_result = "2.8e+06"

[[record]]
binder = "AD164.76.3 (antibody, V domains shown, mouse hybridoma antibody; also called muAb10; AD164.76.2) VH: DVQLQESGPGLVKPSQSLSLTCSVTGYSITSNYYWNWIRQFPGNKLEWMGYIRYDGSNNYNPSLKNRISITRDTSKNQFFLRLNSVTTEDTATYYCTRLDYWGQGTTLTVSS VL: DAVMTQTPLSLPVSLGDQASISCRSSQSLENSNGNTFLNWFLQKPGQSPQLLIYRISNRFSGVPDRFSGSGSGTDFTLKISRVEAEDLGVYFCLQVTHVPFTFGSGTKLEIK"
reported_metric = "kon"
unit_symbol = "M⁻¹ s⁻¹"
recorded_result = "2.6e+06"

[[record]]
binder = "AD163.7.2 (antibody, V domains shown, mouse hybridoma antibody; also called muAb8) VH: QVQLQQSGPELVKSGASVKISCKASGYTFTDYYINWVKQRPGQGLEWIGWIFPGSGSVYCNEQFKGQATLTVDRSSSTAYMLLSSLTSEDSAVYFCASSLGKFAYWGQGTLVTVSA VL: DIVMTQSQKFMSTTVGDRVSITCKASQSVVTAVAWYQQKPGQSPKLLIYSASNRYTGVPDRFTGSGSGTDFALTIRTMQSEDLADYFCQQYSSYPYTFGGGTKLEIK"
reported_metric = "kon"
unit_symbol = "M⁻¹ s⁻¹"
recorded_result = "1e+06"

[[record]]
binder = "AD163.162.1 (antibody, V domains shown, mouse hybridoma antibody; also called muAb6) VH: QVQLQQPGAELVRPGSSVKLSCKASGYTFTSYWMHWVKQRPIQGLEWIGNIDPSNGETHYNQKFKDKATLTVDKSSSTAYMQLSSLTSEDSAVYYCARERIYYSGSTYDGYFDVWGTGTTVTVSS VL: QIVLTQSPAIMSASPGEKVTMTCSASSSLSYMHWYQQKSGTSPKRWIYDTSKLASGVPARFSGSGSGTSYSLTISSMEAEDAATYYCQQWSSNPWTFGGGTKLEIK"
reported_metric = "kon"
unit_symbol = "M⁻¹ s⁻¹"
recorded_result = 76000

[[record]]
binder = "AD163.10.7 (antibody, V domains shown, mouse hybridoma antibody; also called muAb4) VH: LVQPGGSLSLSCAASGFTFSDYYMSWVRQPPGKALEWLGFIRNKANGYTTEFSASVKGRFTISRDNSQSILYLQMNALRAEDSATYYCARYGGLRQGWYFDVWGTGTTVTVSS VL: DIQMTQTTSSLSASLGDRVTISCRASQDIRNYLNWYQQKPDGTVKLLIYYTSRLHSGVPSRFSGSGSGTDYSLTISNLEQEDIATYFCQQGKTLPWTFGGGSKLEMK"
reported_metric = "kon"
unit_symbol = "M⁻¹ s⁻¹"
recorded_result = "2.3e+06"

[[record]]
binder = "AD163.27.12 (antibody, V domains shown, mouse hybridoma antibody; also called muAb7) VH: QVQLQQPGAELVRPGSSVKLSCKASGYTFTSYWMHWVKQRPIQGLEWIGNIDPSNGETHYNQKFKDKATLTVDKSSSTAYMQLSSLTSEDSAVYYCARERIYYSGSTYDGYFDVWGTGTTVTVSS VL: QIVLTQSPAIMSASPGEKVTMTCSASSSLSYMHWYQQKSGTSPKRWIYDTSKLASGVPARFSGSGSGTSYSLTISSMEGEDGATYYCQQWSSNPWTFGGGTKLEIK"
reported_metric = "kon"
unit_symbol = "M⁻¹ s⁻¹"
recorded_result = 75000

[[record]]
binder = "AD165.1.2 (antibody, V domains shown, mouse hybridoma antibody; also called muAb5) VH: DVQLQESGPGLVEPSQSLFLTCSVTGYSITTNYNWNWIRQFPGNKLEWMGYIRHDGTNNYNPSLKNRISIIRDTPKNQFFLKLNSVTTEDTAIYFCTRLDYWGQGTSVTVSS VL: DAVMTQTPLSLPVSLGDQASISCRSSQSLENSYGNTFLNWFLQRPGQSPQLLIYRVSNRFCGVPDRFSGSGSGTDFTLKISRVEAEDLGIYFCLQVTHVPYTFGGGTKLEIK"
reported_metric = "kon"
unit_symbol = "M⁻¹ s⁻¹"
recorded_result = "2.3e+06"

[[record]]
binder = "AD163.9.3 (antibody, V domains shown, mouse hybridoma antibody; also called muAb1) VH: QVQLQQPGAELVKPGASVKMSCKASGYTFTSYWITWVKQRPGQGLEWIGEINPGSGSTNYNEKFKSKATLTVDTSSSTAYMQLSSLTSEDSAVYYCARNRGTGDYWGQGTTLTVSS VL: DVVMTQTPLSLPVSLGDQASISCRSSQSLVHSYGNTYLHWYLQKPGQSPKFLIYKVSNRISGVPDRLSGSGSGTDFTLKISRVEPEDLGVYFCSQSTHVPYTFGGGTKLEIK"
reported_metric = "kon"
unit_symbol = "M⁻¹ s⁻¹"
recorded_result = 470000

[[record]]
binder = "huAb8-1 (antibody, human IgG1, V domains shown, human IgG1, kappa) VH: EVQLVQSGAEVKKPGSSVKVSCKASGYTFTDYYINWVRQAPGQGLEWIGWIFPGSGSVYCNEQFKGRATLTVDRSTSTAYMELSSLRSEDTAVYFCASSLGKFAYWGQGTLVTVSS VL: DIQMTQSPSSLSASVGDRVTITCKASQSVVTAVAWYQQKPGKSPKLLIYSASNRYTGVPSRFSGSGSGTDFTLTISSLQPEDFATYFCQQYSSYPYTFGGGTKVEIK"
reported_metric = "kon"
unit_symbol = "M⁻¹ s⁻¹"
recorded_result = 770000

